For each of the compounds below, state its XC50.
Test system: Plasmodium falciparum
Experiment: GSK_TCMDC: Inhibition of Plasmodium falciparum 3D7 in whole erythrocytes, using parasite LDH activity as an index of growth.
Assay type: functional, organism-based
Settings: Plasmodium falciparum, 3D7
Enter your answer as a number in nM; do not include the unit.

// query Quote XC50 with test system Plasmodium falciparum for COCCNCc1cccc(-c2ccccc2CN(C(=O)c2ccc3c(c2)OCO3)c2ccc(OC)cc2)c1
// result 1110

// query Quote XC50 with test system Plasmodium falciparum for Nc1nc(N)c2c(Oc3ccc(Cl)c(Cl)c3)cccc2n1
// result 871

// query Quote XC50 with test system Plasmodium falciparum for O=C(C1CC1c1ccccc1)N(Cc1ccc(-c2ccc(CNCCc3ccccc3)cc2)cc1)C1CCNCC1 (stereo not given)
// result 1110

// query Quote XC50 with test system Plasmodium falciparum for COc1ccc(C(=O)N2CCC3(CC2)C(=O)N(CC(=O)NCC2CCCCC2)CN3c2ccccc2)cc1
// result 273

// query Quote XC50 with test system Plasmodium falciparum for O=C(N[C@H]1CCN(Cc2ccc(OCCN3CCNCC3)c(Br)c2)C1)c1ccc(Cl)c(Cl)c1
// result 484

---

Tested on: Plasmodium falciparum
Assay: GSK_TCMDC: Inhibition of Plasmodium falciparum 3D7 in whole erythrocytes, using parasite LDH activity as an index of growth.
Assay type: functional, organism-based
Details: Plasmodium falciparum, 3D7
propertyName: XC50 (nM)
Enter your answer as a number in nM; do not include the unit.

// query Quote XC50 with test system Plasmodium falciparum for COc1ccc(-c2cccc(NC(=O)c3ccc(Cl)cc3)c2)cc1CNC(C)C
// result 695

// query Quote XC50 with test system Plasmodium falciparum for CN(c1ccc(F)cc1)S(=O)(=O)c1ccc(Cl)c(C(=O)Nc2cccc(C#N)c2)c1
// result 699

// query Quote XC50 with test system Plasmodium falciparum for O=C(/C=C/c1ccc(Cl)c(Cl)c1)NCc1ccc(CN2CCC(c3c[nH]c4ccccc34)CC2)cc1
// result 711

---

System: Plasmodium falciparum
Assay: GSK_TCMDC: Inhibition of Plasmodium falciparum 3D7 in whole erythrocytes, using parasite LDH activity as an index of growth.
Type: functional, organism-based
Settings: Plasmodium falciparum, 3D7
For each of the compounds below, state its XC50.
Dear colleague, please send the value followed by its unit.

// query Kindly indicate its recorded XC50. Item: O=C(Nc1ccc(CCNC2=NCCN2)cc1)Nc1ccc(CCNC2=NCCN2)cc1
// result 789 nM

// query Kindly indicate its recorded XC50. Item: O=C(Nc1cccc(-c2cccc(-c3nc4cc(F)ccc4[nH]3)c2)c1)c1csnn1
// result 788 nM

// query Kindly indicate its recorded XC50. Item: O=C(NCCCCCN1CCC(c2c[nH]c3ccccc23)C1)Nc1ccc(Cl)c(Cl)c1 (stereo not drawn)
// result 811 nM

---

For each of the compounds below, state its XC50.
System: Plasmodium falciparum
Assay: GSK_TCMDC: Inhibition of Plasmodium falciparum 3D7 in whole erythrocytes, using parasite LDH activity as an index of growth.
Type: functional, organism-based
Conditions: Plasmodium falciparum, 3D7
Enter your answer as a number in nM; do not include the unit.

// query Kindly indicate its recorded XC50. Item: COC(=O)c1noc(C)c1I
// result 802

// query Kindly indicate its recorded XC50. Item: COc1ccc(-c2cccc(NC(=O)c3ccc(Cl)cc3)c2)cc1CN(C)CCN(C)C
// result 776

// query Kindly indicate its recorded XC50. Item: C#CCCC(=O)Nc1cccc(-c2cccc(-c3nc4cc(C(F)(F)F)ccc4[nH]3)c2)c1
// result 805
